These data points were gathered from ChEMBL document CHEMBL3400056.

- Experimental System: Prostaglandin G/H synthase 2 (Homo sapiens, UniProt P35354)
- Sequence (P35354 whole entry): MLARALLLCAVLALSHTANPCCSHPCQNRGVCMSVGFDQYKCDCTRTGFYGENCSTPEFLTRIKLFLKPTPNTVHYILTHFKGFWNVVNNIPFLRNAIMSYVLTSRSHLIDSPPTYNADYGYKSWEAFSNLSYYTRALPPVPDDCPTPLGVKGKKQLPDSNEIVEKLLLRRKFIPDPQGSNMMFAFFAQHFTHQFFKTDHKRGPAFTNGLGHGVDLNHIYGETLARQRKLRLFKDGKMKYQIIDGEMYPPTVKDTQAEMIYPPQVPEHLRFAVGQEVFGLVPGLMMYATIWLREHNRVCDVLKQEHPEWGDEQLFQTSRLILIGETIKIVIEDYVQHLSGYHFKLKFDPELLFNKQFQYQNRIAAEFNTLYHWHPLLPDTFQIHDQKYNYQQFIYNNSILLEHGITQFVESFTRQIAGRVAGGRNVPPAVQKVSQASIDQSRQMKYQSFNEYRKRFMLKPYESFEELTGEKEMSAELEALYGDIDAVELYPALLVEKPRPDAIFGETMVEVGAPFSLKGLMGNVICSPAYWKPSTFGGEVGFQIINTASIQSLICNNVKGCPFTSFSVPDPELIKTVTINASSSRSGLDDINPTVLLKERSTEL
- Test Description: Inhibition of human recombinant COX-2 using […] as substrate incubated for 10 mins prior to arachidonic acid addition measured after 2 mins by EIA
Could you please report measured IC50 for the items listed next?
Number in µM, nothing else.

Exercise: Item under review: COc1ccc2cc(C(C)c3nc4s/c(=C\c5ccc(Br)s5)c(=O)n4n3)ccc2c1 (stereo unspecified) . Reported IC50?
Solution: 17.3

Exercise: Item under review: COc1ccc2cc(C(C)c3nc4s/c(=C\C(C)=C\c5ccccc5)c(=O)n4n3)ccc2c1 (stereo unspecified) . Reported IC50?
Solution: 24.6

Exercise: Item under review: COc1ccc2cc(C(C)c3nc4s/c(=C\c5cccc6ccccc56)c(=O)n4n3)ccc2c1 (stereo unspecified) . Reported IC50?
Solution: 68.2

Exercise: Item under review: COc1ccc2cc(C(C)c3nc4s/c(=C\c5ccc(C)s5)c(=O)n4n3)ccc2c1 (stereo unspecified) . Reported IC50?
Solution: 20.5

###

- Experimental System: Prostaglandin G/H synthase 1 (Ovis aries, UniProt P05979)
- Sequence (P05979 whole entry): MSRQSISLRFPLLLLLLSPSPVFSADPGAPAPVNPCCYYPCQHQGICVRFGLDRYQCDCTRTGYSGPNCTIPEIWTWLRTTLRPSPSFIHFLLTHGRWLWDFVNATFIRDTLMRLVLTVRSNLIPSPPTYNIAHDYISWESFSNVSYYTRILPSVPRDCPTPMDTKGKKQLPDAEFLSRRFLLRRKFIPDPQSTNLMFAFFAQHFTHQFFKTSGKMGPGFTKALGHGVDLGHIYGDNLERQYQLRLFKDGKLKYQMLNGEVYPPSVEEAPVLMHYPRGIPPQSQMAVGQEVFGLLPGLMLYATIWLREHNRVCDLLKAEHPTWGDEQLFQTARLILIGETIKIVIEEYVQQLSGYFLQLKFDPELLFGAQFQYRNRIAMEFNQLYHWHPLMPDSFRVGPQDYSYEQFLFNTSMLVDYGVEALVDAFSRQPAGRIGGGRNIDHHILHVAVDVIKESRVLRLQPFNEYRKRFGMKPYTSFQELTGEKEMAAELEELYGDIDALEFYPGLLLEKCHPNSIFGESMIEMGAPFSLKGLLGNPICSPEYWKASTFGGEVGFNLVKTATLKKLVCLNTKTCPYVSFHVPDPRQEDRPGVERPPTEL
- Test Description: Inhibition of ovine recombinant COX-1 using […] as substrate incubated for 10 mins prior to arachidonic acid addition measured after 2 mins by EIA
Could you please report measured IC50 for the items listed next?
Number in µM, nothing else.

Exercise: Item under review: COc1ccc2cc(C(C)c3nc4s/c(=C\C(C)=C\c5ccccc5)c(=O)n4n3)ccc2c1 (stereo unspecified) . Reported IC50?
Solution: 64.7

Exercise: Item under review: COc1ccc2cc(C(C)c3nc4s/c(=C\c5cccc6ccccc56)c(=O)n4n3)ccc2c1 (stereo unspecified) . Reported IC50?
Solution: 85.6

Exercise: Item under review: COc1ccc2cc(C(C)c3nc4s/c(=C\c5ccc(Br)s5)c(=O)n4n3)ccc2c1 (stereo unspecified) . Reported IC50?
Solution: 39.8

Exercise: Item under review: COc1ccc2cc(C(C)c3nc4s/c(=C\c5ccc(C(C)C)cc5)c(=O)n4n3)ccc2c1 (stereo unspecified) . Reported IC50?
Solution: 79.6

###

Could you please report measured UI for the items listed next?
- Test system: Mus musculus
- Test Description: Gastrointestinal toxicity in Swiss albino mouse assessed as ulcer index at 100 mg/kg, po measured after 2 hrs
- Type: organism-based
- Set-up: dose 100 mg/kg, route oral
- Details: in vivo
The answer should be written as a number, with no unit following it.

Exercise: Item under review: COc1ccc2cc([C@H](C)C(=O)O)ccc2c1 . Reported UI?
Solution: 4.2

Exercise: Item under review: COc1ccc2cc(C(C)c3nc4s/c(=C\c5cccc(OCc6ccccc6)c5)c(=O)n4n3)ccc2c1 (configuration not stated) . Reported UI?
Solution: 2.9

Exercise: Item under review: COc1ccc2cc(C(C)c3n[nH]c(=S)[nH]3)ccc2c1 (configuration not stated) . Reported UI?
Solution: 2.3

Exercise: Item under review: COc1ccc2cc(C(C)c3nc4s/c(=C\c5ccc(OC(C)=O)cc5)c(=O)n4n3)ccc2c1 (configuration not stated) . Reported UI?
Solution: 2.7

Exercise: Item under review: COc1ccc2cc(C(C)c3nc4s/c(=C\c5ccc(C)s5)c(=O)n4n3)ccc2c1 (configuration not stated) . Reported UI?
Solution: 2.3

Exercise: Item under review: COc1ccc2cc(C(C)c3nc4s/c(=C\C(C)=C\c5ccccc5)c(=O)n4n3)ccc2c1 (configuration not stated) . Reported UI?
Solution: 2.3

Exercise: Item under review: COc1ccc2c(c1)c(CC(=O)O)c(C)n2C(=O)c1ccc(Cl)cc1 . Reported UI?
Solution: 5.1

###

- Test system: Mus musculus
- Test Description: Gastrointestinal toxicity in Swiss albino mouse assessed as ulcer index at 100 mg/kg, po measured after 2 hrs
- Type: organism-based
- Parameters: dose 100 mg/kg, route oral
- Details: in vivo
Measured Metric: UI
The answer should be written as a number, with no unit following it.

Exercise: Item under review: COc1ccc2cc(C(C)c3nc4s/c(=C\c5cccc6ccccc56)c(=O)n4n3)ccc2c1 (centres undefined) . Reported UI?
Solution: 2.2

Exercise: Item under review: COc1ccc2cc(C(C)c3nc4s/c(=C\c5cc(Br)cs5)c(=O)n4n3)ccc2c1 (centres undefined) . Reported UI?
Solution: 2.9

Exercise: Item under review: COc1ccc2cc(C(C)c3nc4s/c(=C\c5ccccc5OCc5ccccc5)c(=O)n4n3)ccc2c1 (centres undefined) . Reported UI?
Solution: 2.6

Exercise: Item under review: COc1ccc2cc(C(C)c3nc4s/c(=C\c5sccc5C)c(=O)n4n3)ccc2c1 (centres undefined) . Reported UI?
Solution: 2.7

Exercise: Item under review: COc1ccc2cc(C(C)c3nc4s/c(=C\c5ccc(C)o5)c(=O)n4n3)ccc2c1 (centres undefined) . Reported UI?
Solution: 2.7

Exercise: Item under review: COc1ccc2cc(C(C)c3nc4s/c(=C\c5ccc(C(C)C)cc5)c(=O)n4n3)ccc2c1 (centres undefined) . Reported UI?
Solution: 2.4

Exercise: Item under review: COc1ccc2cc(C(C)c3nc4s/c(=C\C=C\c5ccccc5)c(=O)n4n3)ccc2c1 (centres undefined) . Reported UI?
Solution: 3.2

Exercise: Item under review: COc1ccc2cc(C(C)c3nc4s/c(=C\c5cccs5)c(=O)n4n3)ccc2c1 (centres undefined) . Reported UI?
Solution: 2.3

Exercise: Item under review: COc1ccc2cc(C(C)c3nc4s/c(=C\c5ccco5)c(=O)n4n3)ccc2c1 (centres undefined) . Reported UI?
Solution: 1.9

###

- Test system: Mus musculus
- Test Description: Gastrointestinal toxicity in Swiss albino mouse assessed as ulcer index at 50 mg/kg, po measured after 2 hrs
- Assay type: organism-based
- Set-up: dose 50 mg/kg, route oral
- Details: in vivo
Could you please report measured UI for the items listed next?
The answer should be written as a number, with no unit following it.

Exercise: Item under review: COc1ccc2cc(C(C)c3nc4s/c(=C\c5cccc6ccccc56)c(=O)n4n3)ccc2c1 (centres undefined) . Reported UI?
Solution: 2.6

Exercise: Item under review: COc1ccc2cc(C(C)c3nc4s/c(=C\c5ccc(OC(C)=O)cc5)c(=O)n4n3)ccc2c1 (centres undefined) . Reported UI?
Solution: 2.9

Exercise: Item under review: COc1ccc2cc(C(C)c3n[nH]c(=S)[nH]3)ccc2c1 (centres undefined) . Reported UI?
Solution: 2.1

Exercise: Item under review: COc1ccc2cc(C(C)c3nc4s/c(=C\c5cccs5)c(=O)n4n3)ccc2c1 (centres undefined) . Reported UI?
Solution: 2.6

Exercise: Item under review: COc1ccc2cc(C(C)c3nc4s/c(=C\c5ccc(C(C)C)cc5)c(=O)n4n3)ccc2c1 (centres undefined) . Reported UI?
Solution: 2.6

Exercise: Item under review: COc1ccc2cc([C@H](C)C(=O)O)ccc2c1 . Reported UI?
Solution: 3.6

Exercise: Item under review: COc1ccc2c3c1O[C@H]1C(=O)CC[C@@]4(O)[C@@H](C2)N(C)CC[C@]314 . Reported UI?
Solution: 1.5

Exercise: Item under review: COc1ccc2cc(C(C)c3nc4s/c(=C\c5ccccc5OCc5ccccc5)c(=O)n4n3)ccc2c1 (centres undefined) . Reported UI?
Solution: 2.4

Exercise: Item under review: COc1ccc2cc(C(C)c3nc4s/c(=C\c5cccc(OCc6ccccc6)c5)c(=O)n4n3)ccc2c1 (centres undefined) . Reported UI?
Solution: 2.9

Exercise: Item under review: COc1ccc2c(c1)c(CC(=O)O)c(C)n2C(=O)c1ccc(Cl)cc1 . Reported UI?
Solution: 4

Exercise: Item under review: COc1ccc2cc(C(C)c3nc4s/c(=C\c5cn(C(C)=O)c6ccccc56)c(=O)n4n3)ccc2c1 (centres undefined) . Reported UI?
Solution: 2.7

Exercise: Item under review: COc1ccc2cc(C(C)c3nc4s/c(=C\C=C\c5ccccc5)c(=O)n4n3)ccc2c1 (centres undefined) . Reported UI?
Solution: 2.4

Exercise: Item under review: COc1ccc2cc(C(C)c3nc4s/c(=C\c5ccc(Br)s5)c(=O)n4n3)ccc2c1 (centres undefined) . Reported UI?
Solution: 1.8

Exercise: Item under review: COc1ccc2cc(C(C)c3nc4s/c(=C\c5ccc(-c6ccccc6)cc5)c(=O)n4n3)ccc2c1 (centres undefined) . Reported UI?
Solution: 1.3

Exercise: Item under review: COc1ccc2cc(C(C)c3nc4s/c(=C\c5ccc(OCc6ccccc6)cc5)c(=O)n4n3)ccc2c1 (centres undefined) . Reported UI?
Solution: 3

Exercise: Item under review: COc1ccc2cc(C(C)c3nc4s/c(=C\c5cccc(OC(C)=O)c5)c(=O)n4n3)ccc2c1 (centres undefined) . Reported UI?
Solution: 2.9

Exercise: Item under review: COc1ccc2cc(C(C)c3nc4s/c(=C\C(C)=C\c5ccccc5)c(=O)n4n3)ccc2c1 (centres undefined) . Reported UI?
Solution: 2

Exercise: Item under review: COc1ccc2cc(C(C)c3nc4s/c(=C\c5ccccc5OC(C)=O)c(=O)n4n3)ccc2c1 (centres undefined) . Reported UI?
Solution: 2.9

Exercise: Item under review: COc1ccc2cc(C(C)c3nc4s/c(=C\c5ccc(C)s5)c(=O)n4n3)ccc2c1 (centres undefined) . Reported UI?
Solution: 1.8
